Tested on: AATACT
testName: DNase I footprint titration, AATACT site
Format: binding
testConditions: equilibrium association constant Ka; pH 7.0, 22° C.
Reported Binding Constant, sequence AATACT values follow for various compounds

smilesNotation: CN(C)CCCNC(=O)CCNC(=O)c1cc(NC(=O)c2cc(NC(=O)c3cc(NC(=O)c4nc(NC(=O)CCCNC(=O)c5cc(NC(=O)c6cc(NC(=O)c7nsc(Cl)c7Cl)cn6C)cn5C)cn4C)cn3C)cn2C)cn1C
Binding Constant, sequence AATACT / M⁻¹: 1e+09
//
smilesNotation: CN(C)CCCNC(=O)c1cc(NC(=O)c2cc(NC(=O)c3cc(NC(=O)c4nsc(NCCCCN)c4Cl)cn3C)cn2C)cn1C
Binding Constant, sequence AATACT / M⁻¹: 1e+08
//
smilesNotation: CN(C)CCCNC(=O)c1cc(NC(=O)c2cc(NC(=O)c3cc(NC(=O)c4nsc(NCCCN)c4Cl)cn3C)cn2C)cn1C
Binding Constant, sequence AATACT / M⁻¹: 1e+08
//
smilesNotation: CN(C)CCCNC(=O)CCNC(=O)c1cc(NC(=O)c2cc(NC(=O)c3cc(NC(=O)c4nc(NC(=O)CCCNC(=O)c5cc(NC(=O)c6cc(NC(=O)c7cc(NC(=O)c8nsc(Cl)c8Cl)cn7C)cn6C)cn5C)cn4C)cn3C)cn2C)cn1C
Binding Constant, sequence AATACT / M⁻¹: 2e+09
//
smilesNotation: CN(C)CCCNC(=O)CCNC(=O)c1cc(NC(=O)c2cc(NC(=O)c3cc(NC(=O)c4nsc(Cl)c4Cl)cn3C)cn2C)cn1C
Binding Constant, sequence AATACT / M⁻¹: 1e+08
//
smilesNotation: CN(C)CCCNC(=O)CCNC(=O)c1cc(NC(=O)c2cc(NC(=O)c3cc(NC(=O)c4cc(NC(=O)c5nsc(Cl)c5Cl)cn4C)cn3C)cn2C)cn1C
Binding Constant, sequence AATACT / M⁻¹: 2e+08
//
smilesNotation: CN(C)CCCNC(=O)CCNC(=O)c1cc(NC(=O)c2cc(NC(=O)c3cc(NC(=O)c4nc(NC(=O)CCCNC(=O)c5cc(NC(=O)c6cc(NC(=O)c7cc(NC(=O)c8nsc(NCCCN(C)C)c8Cl)cn7C)cn6C)cn5C)cn4C)cn3C)cn2C)cn1C
Binding Constant, sequence AATACT / M⁻¹: 7e+09
//
smilesNotation: CN(C)CCCNC(=O)c1cc(NC(=O)c2cc(NC(=O)c3cc(NC(=O)c4nsc(NCCN)c4Cl)cn3C)cn2C)cn1C
Binding Constant, sequence AATACT / M⁻¹: 2e+08

* * *

Tested on: Pseudomona aeruginosa (27853)
testName: MIC, NCCLS broth microdilution
Type: cell-based
testConditions: Pseudomona aeruginosa (27853)
outcomeMeasure: MIC

compound: CN(C)CCCNC(=O)c1cc(NC(=O)c2cc(NC(=O)c3cc(NC(=O)c4nsc(NCCCN(C)C)c4Cl)cn3C)cn2C)cn1C
result: >128 µg/mL
//
compound: CN(C)CCCNC(=O)c1cc(NC(=O)c2cc(NC(=O)c3cc(NC(=O)c4nsc(NCCN)c4Cl)cn3C)cn2C)cn1C
result: >128 µg/mL
//
compound: CN(C)CCCNC(=O)c1cc(NC(=O)c2cc(NC(=O)c3cc(NC(=O)c4nsc(NCCCCN)c4Cl)cn3C)cn2C)cn1C
result: >128 µg/mL
//
compound: CN(C)CCCNC(=O)c1cc(NC(=O)c2cc(NC(=O)c3cc(NC(=O)c4nsc(NCCCN)c4Cl)cn3C)cn2C)cn1C
result: >128 µg/mL
//
compound: Cn1cc(NC(=O)c2cc(NC(=O)c3cc(NC=O)cn3C)cn2C)cc1C(=O)NCCC(=N)N [Distamycin, distamycin, reference compound]
result: >128 µg/mL
